# subject.of.test: human recombinant HDAC6 (Homo sapiens, UniProt Q9UBN7)
# Construct: purchased Calbiochem Inc. 382180
# Sequence (Q9UBN7 1-1215): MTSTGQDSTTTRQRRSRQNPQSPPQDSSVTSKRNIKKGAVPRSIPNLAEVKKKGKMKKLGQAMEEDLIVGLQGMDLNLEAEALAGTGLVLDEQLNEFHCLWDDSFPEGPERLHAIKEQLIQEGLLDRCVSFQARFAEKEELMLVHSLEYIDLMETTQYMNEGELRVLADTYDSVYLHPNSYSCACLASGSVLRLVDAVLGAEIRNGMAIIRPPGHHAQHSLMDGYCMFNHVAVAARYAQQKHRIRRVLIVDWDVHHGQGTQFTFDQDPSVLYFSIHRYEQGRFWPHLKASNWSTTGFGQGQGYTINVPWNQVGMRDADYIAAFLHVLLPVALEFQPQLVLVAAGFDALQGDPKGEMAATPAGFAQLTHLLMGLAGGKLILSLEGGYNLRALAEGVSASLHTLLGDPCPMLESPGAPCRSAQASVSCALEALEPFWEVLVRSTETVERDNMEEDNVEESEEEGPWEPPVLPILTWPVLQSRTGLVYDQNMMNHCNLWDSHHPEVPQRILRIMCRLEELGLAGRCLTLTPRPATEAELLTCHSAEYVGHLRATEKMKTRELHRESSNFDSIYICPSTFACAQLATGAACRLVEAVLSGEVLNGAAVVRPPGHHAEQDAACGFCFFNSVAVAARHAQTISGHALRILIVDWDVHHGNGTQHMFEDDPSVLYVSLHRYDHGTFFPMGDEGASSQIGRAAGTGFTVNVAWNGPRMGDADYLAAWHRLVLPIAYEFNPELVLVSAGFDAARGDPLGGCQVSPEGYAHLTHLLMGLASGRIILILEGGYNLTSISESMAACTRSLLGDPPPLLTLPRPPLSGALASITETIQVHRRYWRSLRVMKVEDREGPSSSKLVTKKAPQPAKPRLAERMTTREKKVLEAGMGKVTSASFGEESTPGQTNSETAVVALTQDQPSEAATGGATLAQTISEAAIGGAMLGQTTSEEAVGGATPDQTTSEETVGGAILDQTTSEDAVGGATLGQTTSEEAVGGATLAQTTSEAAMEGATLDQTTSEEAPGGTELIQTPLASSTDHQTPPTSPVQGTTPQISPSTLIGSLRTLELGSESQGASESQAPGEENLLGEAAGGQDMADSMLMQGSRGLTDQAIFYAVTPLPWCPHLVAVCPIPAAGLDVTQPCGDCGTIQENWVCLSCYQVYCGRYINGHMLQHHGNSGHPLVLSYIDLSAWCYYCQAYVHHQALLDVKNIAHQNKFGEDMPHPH
# assay.comment: HDAC6 enzyme activity inhibition (HDAC Fluorimetric Drug Discovery Kit)
# Format: biochemical
# measurement.context: HDAC6 over HDAC1
Rule: HDAC6 selectivity (fold) under 500 fold gives N, otherwise Y.

{"compound": "Fc1cc(-c2nnc(C(F)F)o2)ccc1Cn1cc(-c2cccs2)nn1 [Compound 18258]", "subject.of.test": "human recombinant HDAC6 (Homo sapiens, UniProt Q9UBN7)", "class": "Y"}
{"compound": "COc1cccc(-c2cn(Cc3ccc(-c4nnc(C(F)F)o4)cc3F)nn2)n1 [Compound 18736]", "subject.of.test": "human recombinant HDAC6 (Homo sapiens, UniProt Q9UBN7)", "class": "Y"}
{"compound": "CN1CC(N2CCC(c3cccc(-c4cn(Cc5ncc(-c6nnc(C(F)F)o6)cc5F)nn4)c3)CC2)C1 [Compound 18877]", "subject.of.test": "human recombinant HDAC6 (Homo sapiens, UniProt Q9UBN7)", "class": "N"}
{"compound": "CN(C)Cc1ccc(-c2cn(Cc3ncc(-c4nnc(C(F)F)o4)cc3F)nn2)c(Cl)c1 [Compound 19098]", "subject.of.test": "human recombinant HDAC6 (Homo sapiens, UniProt Q9UBN7)", "class": "Y"}
{"compound": "CC(C)N1CCc2cc(-c3cn(Cc4ccc(-c5nnc(C(F)F)o5)cc4F)nn3)sc2C1 [Compound 4501]", "subject.of.test": "human recombinant HDAC6 (Homo sapiens, UniProt Q9UBN7)", "class": "N"}

Query :: Given Fc1cc(-c2nnc(C(F)F)o2)ccc1Cn1cc(-c2ccccc2CN2CCC2)nn1 [Compound 4583] , state whether its HDAC6 selectivity (fold) is at least 500 fold.
Result :: N
